Attribution: patent US8367873B2

Test system: Alopecurus myosuroides
Test: Herbicidal post-emergence action
Type: in vivo
Conditions: post-emergence method, 80 g/ha
EXPERIMENTAL ENDPOINT: herbicidal effect against ALOMY (Alopecurus myosuroides) (%)

[
  {
    "COMPOUND": "CCC(=O)OC1=C(c2c(CC)cc(C)cc2CC)C(=O)C2CC3(CC12)SCCCS3 (stereo not shown)",
    "SUBJECT OF TEST": "Alopecurus myosuroides",
    "RECORDED RESULT": 90
  },
  {
    "COMPOUND": "CCc1cc(C)cc(C)c1C1=C(OC(=O)OC)C2CC3(CC2C1=O)OCC=CCO3 (racemic)",
    "SUBJECT OF TEST": "Alopecurus myosuroides",
    "RECORDED RESULT": 100
  },
  {
    "COMPOUND": "CCc1cc(C)cc(CC)c1C1=C(O)[C@H]2CC(=NOC(C)C)C[C@H]2C1=O (relative stereo)",
    "SUBJECT OF TEST": "Alopecurus myosuroides",
    "RECORDED RESULT": 100
  },
  {
    "COMPOUND": "CCc1cc(C)cc(C)c1C1=C(OC(=O)C(C)(C)C)C2CC(=O)CC2C1=O (stereo not shown)",
    "SUBJECT OF TEST": "Alopecurus myosuroides",
    "RECORDED RESULT": 0
  }
]
